# procedure details: NCI Yeast Anticancer Drug Screen. Data for the cln2 rad14 strain (AID 165);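 further: 0% = growth equal to vehicle treated cultures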
# stated conditions: S. cerevisiae cln2 rad14 strain, at 50.0 µM, active compounds read high
About 79,000 compounds went through this panel and 15% of them were active in at least one assay; those are over-represented in the sample as a whole. Where a SMILES comes first, the peptide text is derived from it. The star is where a group is joined. Boc = CC(C)(C)OC(=O)*
Hi there, I'd appreciate the recorded growth inhibition for every entry that follows.
Give bare numbers, in %.

Bench note: what growth inhibition did O=c1[nH]c(=O)n(C2CC(O)C(CO)O2)cc1C#Cc1ccc(C(F)(F)F)cc1 (stereo not drawn) show?
-2.45

What about this compound? CC(=C/c1ccccc1)/C=C1/SC(=S)N(C=C2C(=O)NC(=O)NC2=O)C1=O
50.2

What about this compound? COC(=O)CNC(=O)C(CC(C)C)NC(=O)C(CC(C)C)NC(=O)OC(C)(C)C (stereo not drawn) (Boc-Leu-Leu-Gly-OMe; configuration not given here)
10.5

What about this compound? O=C(Nc1ccc(Cl)cc1)C(=O)C1=C(O)c2ccccc2OC1
11.4

What about this compound? Fc1ccc(CN2COc3c(ccc4cccnc34)C2)c(F)c1
29.6

# map each compound to its growth inhibition
1. CC(=O)OC1C/C(C)=C/CCC(C)/C=C/C2(C)CCC(C(C)(C)O)C12 (stereo not drawn)
2. CCOC(CS(=O)(=O)CC(N)=O)OCC
3. CCCC1OC(c2ccccc2)OCC1CC (stereo not drawn)

2.5
-29.4
-36.9

###

Hi there, I'd appreciate the recorded growth inhibition for every entry that follows.
# procedure details: NCI Yeast Anticancer Drug Screen. Data for the sgs1 mgt1 strain (AID 161);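 further: 0% = growth of cultures given vehicle only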
# stated conditions: S. cerevisiae sgs1 mgt1 strain, at 50.0 µM, active compounds read high
The panel holds about 79,000 compounds, 15% with a hit somewhere; the sample as a whole holds those more often.
Give bare numbers, in %.

Use these answered entries as a reference point.
Bench note: what growth inhibition did CC1(C)O[C@H]2[C@H](O)C[C@](O)(CO)C[C@H]2O1 show?
-0.65

What about this compound? O=c1cc(-c2cccc(OC(F)(F)F)c2)[nH]c2cc3c(cc12)OCO3
-5.05

What about this compound? O=C1OC(=O)C2(Cl)C3C=CC(C3)C12 (stereo not drawn)
-15.6

# map each compound to its growth inhibition
1. O=C1OC(c2ccc([N+](=O)[O-])cc2)=N/C1=C\c1ccccc1
2. CC(=O)Nc1cc(C)c(C(=O)O)c(C)c1

11.1
-9.35

###

Hi there, I'd appreciate the recorded growth inhibition for every entry that follows.
# procedure details: NCI Yeast Anticancer Drug Screen. Data for the bub3 strain (AID 167)
# stated conditions: S. cerevisiae bub3 mutant strain, at 50.0 µM, active compounds read high
This is part of a sample that, as a whole, favours compounds with a hit. Of some 79,000 tested, about 15% had one in any assay.
Numbers only, in %.

Use these answered entries as a reference point.
Bench note: what growth inhibition did CCC(C)Nc1ncnc2c1cnn2C (stereo not given) show?
-25.4

What about this compound? O=Cc1ccc(N2CCCCC2)cc1
-8.25

What about this compound? O=S1(=O)Cc2ccccc2O1
-19

What about this compound? COc1ccc(-c2cn3c(nc4ccccc43)c(C)n2)cc1
21

What about this compound? CC(C)=CCC[C@@H](C)C1[C@@H](OC2OC(CO)C(O)C(O)C2O)CC2(C)[C@@H]3CC(=O)C4C(C)(C)[C@@H](OC5OC(CO)C(O)C(O)C5O)CC[C@@]45C[C@@]35CC[C@]12C (stereo not given in full)
-20.8

# map each compound to its growth inhibition
1. O=C(Nc1ncnc2c1ncn2C1OC(COC(=O)c2ccccc2)C(OC(=O)c2ccccc2)C1OC(=O)c1ccccc1)c1ccccc1 (stereo not given)
2. NC(=O)c1cc(Cl)c(N)c(Cl)c1
3. O=c1[nH]nc(-c2ccc(Cl)cc2)c2cc(Cl)c(Cl)cc12
4. Fc1ccc(CN2COc3c(ccc4cccnc34)C2)c(F)c1
5. C(=N/Nc1ccncc1)/c1ccc2ccccc2n1
6. CN(C)CCNC(=O)c1cccc2c(Nc3ccc(S(=O)(=O)N=C(N)N)cc3)c3ccccc3nc12

1: 4.05; 2: -12.4; 3: -5.2; 4: 49; 5: -7.65; 6: -34.9

# map each compound to its growth inhibition
1. CN(C)C(=O)c1cc2ccccc2[nH]1
2. CSc1nc2c(N)ncnc2n1C
3. CCN(CC)CCCCCOC(=O)c1ccccc1
4. C=CC12CCCCC1C(NC)Cc1ccc(OC)c(O)c12 (stereo not given)
5. O=C1N(O)C2(C=CCCC2)/C(=N/O)C12CCCCC2 (stereo not given)
6. O=[N+]([O-])c1ccc(N/N=C\C2CC=C3c4ccccc4CCC3C2/C=N\Nc2ccc([N+](=O)[O-])cc2[N+](=O)[O-])c([N+](=O)[O-])c1 (stereo not given)
7. COC(=O)[C@@]1(C(C)CC(=O)O)CCCCC1=O (stereo not given in full)
8. CNC(=O)NC1C(O)COC(OC)C1O (stereo not given)

1. 3.75
2. 8.15
3. 43.4
4. 4.9
5. 11.4
6. -3.3
7. -20.8
8. -4.15

Bench note: what growth inhibition did COS(=O)c1cc(Cl)cc(Cl)c1O (stereo not given) show?
-0.85

###

Hi there, I'd appreciate the recorded growth inhibition for every entry that follows.
# procedure details: NCI Yeast Anticancer Drug Screen. Data for the rad50 strain (AID 155);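 further: 0% = growth of vehicle-only cultures of the same strain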
# stated conditions: S. cerevisiae rad50 strain growth inhibition; at 50.0 µM; active compounds read high
This is part of a sample that, as a whole, favours compounds with a hit. Of some 79,000 tested, about 15% had one in any assay.
Numbers only, in %.

Bench note: what growth inhibition did N#CC(N)=NC1CCC(C2CCC(O)CC2)CC1 (centres undefined) show?
6.65

What about this compound? COC(=O)C1=C(C)N(NC(=O)c2ccccc2)C2(O)CCCC(=O)C12C (centres undefined)
20.2

What about this compound? Cc1ccc(C(=O)Nc2ccc3c(c2)Cc2ccccc2-3)cc1
-19.3

Shifting focus to the compound that follows.
Bench note: what growth inhibition did Brc1ccc[n+](CCc2ccccc2)c1 show?
-2.7

###

# procedure details: NCI Yeast Anticancer Drug Screen. Data for the sgs1 mgt1 strain (AID 161);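 further: 0% = growth of cultures given vehicle only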
# stated conditions: S. cerevisiae sgs1 mgt1 strain, at 50.0 µM, active compounds read high
# Description: Growth inhibition of yeast strains with defined genetic alterations is measured as a screen for potential anti-cancer activity. Selected strains with alterations in DNA damage repair or cell cycle control were exposed to compounds and growth inhibition was measured relative to vehicle treated controls. The strain used in this assay is sgs1 mgt1
The panel holds about 79,000 compounds, 15% with a hit somewhere; the sample as a whole holds those more often.
observed property: growth inhibition (%)
One number for each entry, in %.

Use these answered entries as a reference point.
Bench note: what growth inhibition did N#CC1(NC2CCCCC2)CCN(Cc2ccccc2)CC1 show?
-6.1

What about this compound? NC(Cc1ccc(O)c(O)c1)C(=O)OCc1ccccc1 (centres undefined)
68.8

What about this compound? COc1nc(N)c([N+](=O)[O-])c(OC)n1
-2.7

What about this compound? CC(=O)N1c2ccccc2C2(C)CCCC(O)C12O (centres undefined)
-3.9

What about this compound? O=C(O)C(CCOc1ccccc1)(CCc1ccccc1)C(=O)O
5.7

What about this compound? O=C(Nc1ccc2ccccc2c1)c1ccc(Cl)cc1Cl
-0.7

What about this compound? CC(C)CC([N+](C)(C)C)P(=O)([O-])O (centres undefined)
-4.7

What about this compound? COC12OCCN(C)C1=CC(=O)C1=NNC(C)C12 (centres undefined)
-8

What about this compound? Cc1cc([N+](=O)[O-])c(NCCOC(=O)c2ccc([N+](=O)[O-])cc2)c([N+](=O)[O-])c1
-10.9

What about this compound? Cc1c(N(C)C)ccc2c(=O)c3cccc(CC(=O)O)c3oc12
-5.35

# map each compound to its growth inhibition
1. COc1ccc(/C=C(\C2=NC(=O)CS2)c2nc3ccccc3[nH]2)cc1
2. CNC(=S)SC1=NS(=O)(=O)c2ccccc2N1
3. CC(C)CCOC(=O)c1ccccc1OC(=O)Nc1ccc(Cl)cc1[N+](=O)[O-]

1: -20.1; 2: -2.75; 3: -20.4

###

# procedure details: NCI Yeast Anticancer Drug Screen. Data for the mec2-1 strain (AID 157)
# stated conditions: S. cerevisiae mec2-1 strain, at 50.0 µM, active compounds read high
The panel holds about 79,000 compounds, 15% with a hit somewhere; the sample as a whole holds those more often.
Hi there, I'd appreciate the recorded growth inhibition for every entry that follows.
Numbers only, in %.

# map each compound to its growth inhibition
1. COCCOC(=O)c1ccccc1C
2. O=C1c2ccccc2C(=O)c2cc(Br)ccc21
3. CSC(=S)n1nc(-c2cccs2)c(N=Nc2ccc([N+](=O)[O-])cc2)c1C(F)(F)F
4. O=c1c2c(-c3ccccc3)c3ccccc3nc2cnn1-c1ccccc1

[2.35, -21.6, -3.75, -11]
